biological target: MCR-1 (Homo sapiens); construct: expressed in transfected cells; host or cells: HEK 293; assay: Melanocortin receptor binding assay, competition with 125I-HP 467, HEK 293 cells expressing hMCR-1; conditions: displacement of 125I-HP 467 at 10 μM isoquinoline compound; second of duplicate
Sequence (Q01726 whole entry): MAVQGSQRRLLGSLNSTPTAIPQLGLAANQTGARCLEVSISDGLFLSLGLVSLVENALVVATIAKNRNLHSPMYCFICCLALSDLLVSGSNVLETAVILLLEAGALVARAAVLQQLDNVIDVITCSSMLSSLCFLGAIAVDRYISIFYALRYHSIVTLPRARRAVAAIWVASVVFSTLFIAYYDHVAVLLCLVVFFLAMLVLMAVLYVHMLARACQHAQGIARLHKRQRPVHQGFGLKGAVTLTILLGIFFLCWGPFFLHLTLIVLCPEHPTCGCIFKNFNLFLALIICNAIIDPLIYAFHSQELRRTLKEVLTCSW
measurement.kind: % Disp. MC-1 10 μM (%)

molecule	measured.number
CNC(CN)CN1Cc2ccccc2C(CNC2CCCCC2)C1c1ccccc1O (stereo not drawn)	49.9
CNC(CN)CN1Cc2ccccc2C(CNC2CCCCC2)C1c1cccc(C)n1 (stereo not drawn)	49.7
NCCN1Cc2ccccc2C(CNC2CCCCC2)C1c1cccc(Oc2ccccc2)c1 (stereo not drawn)	50.8
